molecular target: UniProt:P15917; assay: Inhibition of Bacillus anthracis lethal factor protease preincubated for 30 mins prior to addition of substrate containing fluorescent proteins CyPet and YPet measured every 2 mins for 3 hrs by FRET assay
Positions of bridges follow the written chain, without caps; N, C: chain ends. Residues, ends and D or L forms follow the SMILES beside them.
Parameter: inhibition

• CC[C@H](C)[C@@H]1NC(=O)[C@@H]2CSSC[C@H](NC(=O)[C@H](CCCNC(=N)N)NC(=O)[C@@H]3CSSC[C@H](NC1=O)C(=O)N[C@@H]([C@@H](C)O)C(=O)N[C@@H](CCCNC(=N)N)C(=O)NCC(=O)N[C@@H](Cc1ccccc1)C(=O)N3)C(=O)N[C@@H](CC(C)C)C(=O)N[C@H]1CSSC[C@H](NC(=O)[C@H](C(C)C)NC(=O)CNC(=O)[C@H](CCCNC(=N)N)NC(=O)[C@H](CCCNC(=N)N)NC1=O)C(=O)N[C@@H](CCCNC(=N)N)C(=O)N2 (cyclo(GFCRCLCRRGVCRCICTR); disulfide 3-16, 5-14, 7-12) = Dose-dependent effect
• CC[C@H](C)[C@@H]1NC(=O)[C@@H]2CSSC[C@H](NC(=O)[C@H](CC(=O)O)NC(=O)[C@@H]3CSSC[C@H](NC1=O)C(=O)N[C@@H]([C@@H](C)O)C(=O)N[C@@H](CCCNC(=N)N)C(=O)NCC(=O)N[C@@H](Cc1ccccc1)C(=O)N3)C(=O)N[C@@H](CC(C)C)C(=O)N[C@H]1CSSC[C@H](NC(=O)[C@H](C(C)C)NC(=O)CNC(=O)[C@H](CCCNC(=N)N)NC(=O)[C@H](CCCNC(=N)N)NC1=O)C(=O)N[C@@H](CCCNC(=N)N)C(=O)N2 (cyclo(CDCLCRRGVCRCICTRGF); disulfide 1-14, 3-12, 5-10) = Dose-dependent effect
• CC[C@H](C)[C@@H]1NC(=O)[C@@H]2CSSC[C@H](NC(=O)[C@H](CCCNC(=N)N)NC(=O)[C@@H]3CSSC[C@H](NC1=O)C(=O)N[C@@H]([C@@H](C)O)C(=O)N[C@@H](CCCNC(=N)N)C(=O)NCC(=O)N[C@@H](Cc1ccccc1)C(=O)N3)C(=O)N[C@@H](CC(C)C)C(=O)N[C@H]1CSSC[C@H](NC(=O)[C@H](Cc3c[nH]c4ccccc34)NC(=O)CNC(=O)[C@H](CCCNC(=N)N)NC(=O)[C@H](CCCNC(=N)N)NC1=O)C(=O)N[C@@H](CCCNC(=N)N)C(=O)N2 (cyclo(CICTRGFCRCLCRRGWCR); disulfide 1-10, 3-8, 12-17) = Dose-dependent effect

====

target: Lethal factor (Bacillus anthracis) (UniProt P15917); assay: Inhibition of Bacillus anthracis lethal factor protease preincubated for 30 mins prior to addition of substrate containing fluorescent proteins CyPet and YPet measured every 2 mins for 3 hrs by FRET assay
Sequence (P15917 whole entry): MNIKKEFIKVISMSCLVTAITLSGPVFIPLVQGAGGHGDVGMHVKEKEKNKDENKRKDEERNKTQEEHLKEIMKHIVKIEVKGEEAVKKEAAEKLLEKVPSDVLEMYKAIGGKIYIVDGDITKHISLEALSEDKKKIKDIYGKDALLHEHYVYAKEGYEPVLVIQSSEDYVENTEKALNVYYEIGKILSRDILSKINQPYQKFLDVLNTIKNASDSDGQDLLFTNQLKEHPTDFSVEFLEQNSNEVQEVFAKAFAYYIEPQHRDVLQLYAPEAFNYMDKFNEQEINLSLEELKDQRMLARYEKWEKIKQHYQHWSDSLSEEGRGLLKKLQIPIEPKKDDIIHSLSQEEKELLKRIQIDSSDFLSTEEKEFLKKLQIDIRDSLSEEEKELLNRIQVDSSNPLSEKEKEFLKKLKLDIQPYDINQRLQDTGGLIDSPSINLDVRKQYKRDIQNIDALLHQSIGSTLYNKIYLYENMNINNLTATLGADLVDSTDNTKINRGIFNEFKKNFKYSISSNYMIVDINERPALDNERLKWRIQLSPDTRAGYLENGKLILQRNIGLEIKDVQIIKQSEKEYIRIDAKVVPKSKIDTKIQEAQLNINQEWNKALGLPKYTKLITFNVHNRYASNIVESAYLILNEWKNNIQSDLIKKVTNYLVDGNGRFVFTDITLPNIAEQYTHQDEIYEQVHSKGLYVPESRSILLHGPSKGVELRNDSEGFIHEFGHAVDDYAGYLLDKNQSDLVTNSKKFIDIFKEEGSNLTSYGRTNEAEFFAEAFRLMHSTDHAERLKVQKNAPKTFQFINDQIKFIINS
Positions of bridges follow the written chain, without caps; N, C: chain ends. Residues, ends and D or L forms follow the SMILES beside them.
Parameter: inhibition

* CC[C@H](C)[C@@H]1NC(=O)[C@@H]2CSSC[C@H](NC(=O)[C@H](CCCNC(=N)N)NC(=O)[C@@H]3CSSC[C@H](NC1=O)C(=O)N[C@@H]([C@@H](C)O)C(=O)N[C@@H](CCC(=O)O)C(=O)NCC(=O)N[C@@H](Cc1ccccc1)C(=O)N3)C(=O)N[C@@H](CC(C)C)C(=O)N[C@H]1CSSC[C@H](NC(=O)[C@H](C(C)C)NC(=O)CNC(=O)[C@H](CCCNC(=N)N)NC(=O)[C@H](CCCNC(=N)N)NC1=O)C(=O)N[C@@H](CCCNC(=N)N)C(=O)N2 (cyclo(CICTEGFCRCLCRRGVCR); disulfide 1-10, 3-8, 12-17) | Dose-dependent effect
* CC(C)C[C@@H]1NC(=O)[C@@H]2CSSC[C@H](NC(=O)[C@H](CCCNC(=N)N)NC(=O)[C@@H]3CSSC[C@H](NC1=O)C(=O)N[C@@H](CCCNC(=N)N)C(=O)N[C@@H](CCCNC(=N)N)C(=O)NCC(=O)N[C@@H](C(C)C)C(=O)N3)C(=O)N[C@@H](Cc1c[nH]c3ccccc13)C(=O)N[C@H]1CSSC[C@H](NC(=O)[C@H](Cc3ccccc3)NC(=O)CNC(=O)[C@H](CCCNC(=N)N)NC(=O)[C@H]([C@@H](C)O)NC1=O)C(=O)N[C@@H](CCCNC(=N)N)C(=O)N2 (cyclo(CLCRRGVCRCWCTRGFCR); disulfide 1-10, 3-8, 12-17) | Dose-dependent effect
